Data credit: the supplement of paper PMC9112550

Provide the reported shrunken log2 fold change of each item.
Test system: Escherichia coli TOP10
TEST: shrunken log2 fold change of peptide-encoding DNA abundance (4.5 h post-induction vs induction); higher = less antimicrobial activity (less host growth inhibition)
CONDITION_SUMMARY: time post-induction: 4.5 h; library: site-saturation at positions 5, 18, 19, 20
Numbers only.

Some sequences with recorded shrunken log2 fold change:
RRIRGRPPRLPRPRPRPKFYPRP :: -0.278
RRIRQRPPRLPRPRPRPDHTPRP :: -0.0589
RRIRIRPPRLPRPRPRPMTYPRP :: -0.0592
RRIRHRPPRLPRPRPRPALSPRP :: -0.257
RRIRIRPPRLPRPRPRPEQRPRP :: -0.0838

Parameter requested: shrunken log2 fold change. Apply to each item below.
1. RRIRQRPPRLPRPRPRPTFVPRP
2. RRIRGRPPRLPRPRPRPFKVPRP
3. RRIRFRPPRLPRPRPRPHHRPRP
4. RRIRYRPPRLPRPRPRPDPHPRP
5. RRIRWRPPRLPRPRPRPGREPRP
6. RRIRYRPPRLPRPRPRPKFPPRP
7. RRIRNRPPRLPRPRPRPDMTPRP

## Result
1. -0.692
2. -0.14
3. -0.401
4. -0.356
5. 0.412
6. -1.01
7. -0.287

Parameter requested: shrunken log2 fold change. Apply to each item below.
1. RRIRQRPPRLPRPRPRPHDLPRP
2. RRIRWRPPRLPRPRPRPQPYPRP
3. RRIRCRPPRLPRPRPRPRMRPRP
4. RRIRKRPPRLPRPRPRPPSCPRP
5. RRIRTRPPRLPRPRPRPKHFPRP
6. RRIRFRPPRLPRPRPRPPNKPRP
7. RRIRARPPRLPRPRPRPDALPRP
8. RRIRDRPPRLPRPRPRPTWTPRP

## Result
1: -0.046; 2: -0.166; 3: 0.542; 4: 1.71; 5: -0.0888; 6: 0.1; 7: 0.625; 8: -0.043

Parameter requested: shrunken log2 fold change. Apply to each item below.
1. RRIRYRPPRLPRPRPRPRVTPRP
2. RRIRTRPPRLPRPRPRPRISPRP

## Result
1: -0.286; 2: -0.106

Parameter requested: shrunken log2 fold change. Apply to each item below.
1. RRIRVRPPRLPRPRPRPRQVPRP
2. RRIRNRPPRLPRPRPRPIGDPRP

## Result
1. 0.0645
2. -0.0116

* * *

Tested on: Escherichia coli TOP10;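 further: peptides expressed intracellularly from a pBAD plasmid library in pooled LB shake-flask culture, induced with 0.3% L-arabinose, DNA abundance read by NGS, three biological replicates, DESeq2 with apeglm shrinkage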
TEST: shrunken log2 fold change of peptide-encoding DNA abundance (4.5 h post-induction vs induction); higher = less antimicrobial activity (less host growth inhibition)
CONDITION_SUMMARY: time post-induction: 4.5 h; library: site-saturation at positions 5, 18, 19, 20
Provide the reported shrunken log2 fold change of each item.
Numbers only.

Some sequences with recorded shrunken log2 fold change:
RRIRCRPPRLPRPRPRPVTVPRP :: -0.484
RRIRMRPPRLPRPRPRPYKTPRP :: 0.0261
RRIRERPPRLPRPRPRPITTPRP :: -0.03
RRIRCRPPRLPRPRPRPIIRPRP :: -0.18

Parameter requested: shrunken log2 fold change. Apply to each item below.
1. RRIRIRPPRLPRPRPRPTRWPRP
2. RRIRRRPPRLPRPRPRPWCQPRP
3. RRIRFRPPRLPRPRPRPQQGPRP
4. RRIRRRPPRLPRPRPRPDAQPRP

## Result
1: 0.242; 2: -0.26; 3: -0.0566; 4: 0.471

Parameter requested: shrunken log2 fold change. Apply to each item below.
1. RRIRKRPPRLPRPRPRPRKQPRP
2. RRIRCRPPRLPRPRPRPCRVPRP
3. RRIRARPPRLPRPRPRPWEGPRP
4. RRIRFRPPRLPRPRPRPFMQPRP
5. RRIRPRPPRLPRPRPRPVSPPRP

## Result
1: 0.224; 2: -0.438; 3: 0.209; 4: -0.675; 5: 0.0647
